Concentration at which toxicity was seen with compound alone values for the molecules below.
- assay-remarks: Cellular toxicity / cell growth with compound alone (no L-PHA)
- Type: cell-based
- condition-info: MDAY-D2 mouse lymphoma cells; read-out: Toxicity (cellular toxicity observed with compound alone)
measurement-label: Concentration at which toxicity was seen with compound alone

# structure-as-smiles, value
rows = [
    ("CCCCN1C[C@@H](O)[C@@H](O)[C@H]1CO", "> 2500 µM"),
    ("CCN1C[C@@H](O)[C@@H](O)[C@H]1CO", "> 5000 µM"),
    ("OC[C@@H]1[C@H](O)[C@H](O)CN1CC1CC1", "> 2500 µM"),
    ("CN1C[C@@H](O)[C@@H](O)[C@H]1CO", "> 5000 µM"),
    ("CCCN1C[C@@H](O)[C@@H](O)[C@H]1CO", "> 2500 µM"),
]

###

- subject-of-test: Jack Bean α-mannosidase (Canavalia ensiformis, UniProt C0HJB3)
- Construct: purchased Sigma
- Sequence (C0HJB3 whole entry): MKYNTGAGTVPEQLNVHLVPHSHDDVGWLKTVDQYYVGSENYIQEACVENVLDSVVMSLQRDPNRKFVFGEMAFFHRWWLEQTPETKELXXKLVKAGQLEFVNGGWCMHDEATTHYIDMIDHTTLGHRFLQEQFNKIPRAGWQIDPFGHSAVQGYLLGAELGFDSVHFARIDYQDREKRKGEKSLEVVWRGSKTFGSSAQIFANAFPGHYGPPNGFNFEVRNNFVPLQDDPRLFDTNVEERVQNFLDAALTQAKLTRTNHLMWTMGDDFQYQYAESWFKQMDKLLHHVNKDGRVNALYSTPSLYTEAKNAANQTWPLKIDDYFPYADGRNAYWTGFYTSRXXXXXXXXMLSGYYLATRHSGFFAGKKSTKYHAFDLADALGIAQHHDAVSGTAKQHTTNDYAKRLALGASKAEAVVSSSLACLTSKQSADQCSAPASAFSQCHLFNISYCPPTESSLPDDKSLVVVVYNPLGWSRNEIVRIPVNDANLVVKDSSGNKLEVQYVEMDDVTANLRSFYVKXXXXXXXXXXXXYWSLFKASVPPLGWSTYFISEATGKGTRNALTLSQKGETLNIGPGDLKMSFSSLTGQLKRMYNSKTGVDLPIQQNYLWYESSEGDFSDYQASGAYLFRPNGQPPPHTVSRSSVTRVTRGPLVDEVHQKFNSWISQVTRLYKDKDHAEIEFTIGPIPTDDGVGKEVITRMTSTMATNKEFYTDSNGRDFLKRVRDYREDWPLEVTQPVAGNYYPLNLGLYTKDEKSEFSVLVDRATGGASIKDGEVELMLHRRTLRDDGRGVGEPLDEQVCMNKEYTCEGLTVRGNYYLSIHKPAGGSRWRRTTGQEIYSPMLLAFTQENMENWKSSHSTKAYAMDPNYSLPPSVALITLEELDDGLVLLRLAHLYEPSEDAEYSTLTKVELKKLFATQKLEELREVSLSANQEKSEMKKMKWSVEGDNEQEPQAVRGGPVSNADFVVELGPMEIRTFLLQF
- assay-remarks: Inhibition of Jack Bean α-mannosidase
- Format: biochemical
measurement-label: IC50 (µM)

# molecule, value
records = [
    ("CCCC(=O)OC1CN2CCCC(O)C2C1O (stereo not shown) [2-butanoyloxy-SW]", 123),
]

###

- subject-of-test: Jack Bean α-mannosidase (Canavalia ensiformis)
- Construct: purchased Sigma
- assay-remarks: Inhibition of Jack Bean α-mannosidase
- Type: biochemical
- condition-info: p-nitrophenyl α-D-mannopyranoside, pH 5.0, 20 min 37° C.; read-out: IC50 for inhibition of J.B. α-mannosidase
pIC50: −log10 of the molar value.
Quick reference: pIC50 of the listed items.
measurement-label: pIC50

# compound, comparison-operator, value
records = [
    ("CCCCCCCCCCCCCCCC(=O)OC1CCCN2CC(O)C(O)C12 (stereo not shown) [8-palmitoyloxy-SW]", "=", 3.62),
    ("Cc1ccc(C(=O)O[C@@H]2CN3CCC[C@@H](O)[C@@H]3[C@@H]2O)cc1 [2-toluoyloxy-SW]", "=", 3.46),
    ("CCCCCCCCCCCCCC(=O)OC1CCCN2CC(O)C(O)C12 (stereo not shown) [8-myristinoyloxy-SW]", "<", 3.30),
    ("OC1CN2C[C@@H](O)[C@@H](O)[C@H]2[C@H](O)C1O (stereo partly shown) [6,7-dihydroxy-SW]", "=", 4.30),
]

###

- subject-of-test: rat liver Golgi α-mannosidase II (Rattus norvegicus, UniProt P28494)
- Sequence (P28494 whole entry): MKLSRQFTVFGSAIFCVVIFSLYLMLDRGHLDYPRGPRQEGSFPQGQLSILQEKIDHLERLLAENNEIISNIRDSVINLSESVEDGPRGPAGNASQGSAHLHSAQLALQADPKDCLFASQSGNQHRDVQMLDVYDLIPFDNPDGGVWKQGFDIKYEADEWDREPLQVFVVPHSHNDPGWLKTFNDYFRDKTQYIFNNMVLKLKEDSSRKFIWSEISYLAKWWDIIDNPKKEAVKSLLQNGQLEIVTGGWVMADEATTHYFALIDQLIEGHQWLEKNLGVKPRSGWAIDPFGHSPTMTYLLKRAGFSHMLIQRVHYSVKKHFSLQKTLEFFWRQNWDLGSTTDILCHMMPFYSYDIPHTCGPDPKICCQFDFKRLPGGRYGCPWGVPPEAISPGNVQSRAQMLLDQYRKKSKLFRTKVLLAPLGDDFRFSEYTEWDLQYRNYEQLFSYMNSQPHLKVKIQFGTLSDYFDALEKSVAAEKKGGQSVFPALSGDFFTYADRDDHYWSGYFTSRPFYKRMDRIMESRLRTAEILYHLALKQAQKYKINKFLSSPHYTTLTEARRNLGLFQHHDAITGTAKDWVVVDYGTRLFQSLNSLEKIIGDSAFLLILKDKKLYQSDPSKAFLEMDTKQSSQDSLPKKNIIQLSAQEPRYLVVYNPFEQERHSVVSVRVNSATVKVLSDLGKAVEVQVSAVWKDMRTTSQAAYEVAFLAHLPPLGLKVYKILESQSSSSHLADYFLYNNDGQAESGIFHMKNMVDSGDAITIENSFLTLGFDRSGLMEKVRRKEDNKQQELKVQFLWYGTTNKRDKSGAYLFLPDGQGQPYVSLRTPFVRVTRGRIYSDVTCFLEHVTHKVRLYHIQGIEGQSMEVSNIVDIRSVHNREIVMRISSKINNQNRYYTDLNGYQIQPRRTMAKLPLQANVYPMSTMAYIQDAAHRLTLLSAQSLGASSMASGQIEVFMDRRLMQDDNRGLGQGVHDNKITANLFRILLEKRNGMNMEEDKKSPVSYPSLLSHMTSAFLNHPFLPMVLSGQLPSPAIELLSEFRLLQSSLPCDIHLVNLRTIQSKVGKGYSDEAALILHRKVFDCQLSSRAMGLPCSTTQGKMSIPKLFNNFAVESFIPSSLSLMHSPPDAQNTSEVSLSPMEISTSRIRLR
measurement-label: IC50 (µM)

# molecule, subject-of-test, readout-units, value
data = [
    ("CN1C[C@@H](O)[C@@H](O)[C@H]1CO", "rat liver Golgi α-mannosidase II (Rattus norvegicus, UniProt P28494)", "µM", 26.3),
    ("CCCCN1C[C@@H](O)[C@@H](O)[C@H]1CO", "rat liver Golgi α-mannosidase II (Rattus norvegicus, UniProt P28494)", "µM", 50.9),
    ("CC(O)C1[C@H](O)[C@H](O)CN1CC1CCCCC1 (stereo partly drawn)", "rat liver Golgi α-mannosidase II (Rattus norvegicus, UniProt P28494)", "µM", 140),
]

Source listed as patent US5773239A.
